- TEST TARGET: cloned human NR1/NR2B ion channels (Homo sapiens (Human), UniProt Q05586+Q13224)
- Sequence (Q13224 27-1484, other chains not shown): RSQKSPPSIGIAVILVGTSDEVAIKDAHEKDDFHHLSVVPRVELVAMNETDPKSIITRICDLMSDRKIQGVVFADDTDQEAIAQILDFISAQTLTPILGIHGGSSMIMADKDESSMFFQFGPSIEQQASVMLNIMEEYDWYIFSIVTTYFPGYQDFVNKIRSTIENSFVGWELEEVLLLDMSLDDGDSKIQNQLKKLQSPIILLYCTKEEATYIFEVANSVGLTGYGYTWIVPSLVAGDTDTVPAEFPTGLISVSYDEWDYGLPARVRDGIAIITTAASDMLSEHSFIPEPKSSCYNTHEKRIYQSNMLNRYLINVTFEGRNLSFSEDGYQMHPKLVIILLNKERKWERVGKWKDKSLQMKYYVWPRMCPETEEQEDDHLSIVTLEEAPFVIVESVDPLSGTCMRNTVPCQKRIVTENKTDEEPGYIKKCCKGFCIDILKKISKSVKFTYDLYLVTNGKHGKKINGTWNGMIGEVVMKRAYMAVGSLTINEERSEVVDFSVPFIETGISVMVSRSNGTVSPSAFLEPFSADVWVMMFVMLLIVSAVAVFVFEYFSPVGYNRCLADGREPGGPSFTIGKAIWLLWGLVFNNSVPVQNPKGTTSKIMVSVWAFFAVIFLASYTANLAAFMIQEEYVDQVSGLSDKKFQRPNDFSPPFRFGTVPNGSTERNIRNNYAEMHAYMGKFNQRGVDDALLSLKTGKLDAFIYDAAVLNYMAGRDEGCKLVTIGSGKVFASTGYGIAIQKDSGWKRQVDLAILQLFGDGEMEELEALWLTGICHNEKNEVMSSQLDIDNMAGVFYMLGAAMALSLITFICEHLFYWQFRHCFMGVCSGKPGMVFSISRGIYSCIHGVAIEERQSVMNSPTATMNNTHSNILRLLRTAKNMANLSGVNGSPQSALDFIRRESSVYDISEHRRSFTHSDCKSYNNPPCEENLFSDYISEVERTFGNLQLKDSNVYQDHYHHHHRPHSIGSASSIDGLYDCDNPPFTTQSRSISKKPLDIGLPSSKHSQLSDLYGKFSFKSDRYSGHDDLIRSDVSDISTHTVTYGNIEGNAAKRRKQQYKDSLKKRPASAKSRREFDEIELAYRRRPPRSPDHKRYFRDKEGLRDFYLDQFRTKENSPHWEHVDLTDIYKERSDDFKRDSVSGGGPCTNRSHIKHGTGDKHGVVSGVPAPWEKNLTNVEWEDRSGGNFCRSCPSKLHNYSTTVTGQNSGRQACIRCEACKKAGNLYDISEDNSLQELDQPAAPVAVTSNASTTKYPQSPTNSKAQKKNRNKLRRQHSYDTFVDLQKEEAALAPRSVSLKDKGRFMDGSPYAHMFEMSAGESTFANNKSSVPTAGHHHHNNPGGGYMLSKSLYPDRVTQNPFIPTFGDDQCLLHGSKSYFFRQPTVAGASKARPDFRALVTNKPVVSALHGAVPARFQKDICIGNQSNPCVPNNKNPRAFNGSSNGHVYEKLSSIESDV
- ASSAY REMARKS: HNR2BC: effects of test articles on cloned human NR1/NR2B ion channels expressed in mammalian cells (FLIPR calcium flux)
- Format: cell-based
- STATED CONDITIONS: cloned human NR1/NR2B, Table 5
Structures can show the parent of a compound that is named as a salt.
MEASURE NAME: IC50 (µM)
One number for each entry, in µM.

# MOLECULE, IC50 [µM]
measured = [
    ("O=C(Cn1cc(Cl)c2ncc(-c3cc(F)c(F)c(F)c3)cc21)N1CC(F)(F)C1 [Example 49]", 0.2),
    ("O=C(Cn1ccc2ncc(-c3cc(F)c(F)c(F)c3)cc21)N1CCC1 [Example 363]", 0.0794),
    ("Cc1cc(Cn2ccc3ncc(-c4ccc(F)cc4C)cc32)no1 [Example 59]", 0.0398),
    ("O=C(Cn1ccc2ncc(-c3ccc(F)cc3)cc21)c1ccc(F)cc1 [Example 227]", 0.794),
    ("Cc1c(F)ccc(-c2cnc3c(F)cn(CC(=O)N4CC(F)(F)C4)c3c2)c1F [Example 271]", 0.0794),
    ("Cc1cc(F)ccc1-c1cnc2ccn(CC(=O)N3CC(F)C3)c2c1 [Example 264, trifluoroacetate salt]", 0.0631),
    ("O=C(Cn1ccc2ncc(-c3cc(F)ccc3F)cc21)N1CCC1 [Example 135]", 0.0398),
    ("Cc1cc(C)cc(-c2cnc3c(Cl)cn(CC(=O)N4CCC4)c3c2)c1 [Example 303]", 0.0398),
    ("CO/N=C(/Cn1ccc2ncc(-c3ccc(F)c(C)c3)cc21)C1CC1 [Example 276]", 0.501),
    ("O=C(Cn1cc(Cl)c2ncc(-c3cc(F)c(F)c(F)c3)cc21)N1CC(F)C1 [Example 39]", 0.0316),
]

Give measured IC50 for every item shown.
1. CCc1cccc(-c2cnc3ccn(CC(=O)N4CCOCC4)c3c2)c1 [Example 91]
2. Cc1ccccc1-c1cnc2ccn(CC(=O)NC3CC3)c2c1 [Example 160]
3. Cc1csc(-c2cnc3c(F)cn(CC(=O)C4CC4)c3c2)c1 [Example 317]
4. O=C(Cn1cc(Cl)c2ncc(-c3cccc(C(F)(F)F)c3)cc21)N1CC(F)(F)C1 [Example 36]
5. CN(C)C(=O)Cn1cc(F)c2ncc(-c3cccc(C(F)F)c3)cc21 [Example 95]
6. O=C(Cn1ccc2ncc(-c3ccc(Cl)c(Cl)c3)cc21)NC1CC1 [Example 156, trifluoroacetate salt]
7. O=C(Cn1ccc2ncc(-c3cccc(F)c3)cc21)N1CCCC1 [Example 84]

[1.58, 0.2, 0.0398, 0.1, 0.0398, 0.2, 0.0794]

Give measured IC50 for every item shown.
1. CCc1cccc(-c2cnc3ccn(CC(=O)N4CC(F)(F)C4)c3c2)c1 [Example 258, trifluoroacetate salt]
2. O=C(Cn1cc(Br)c2ncc(-c3ccc(F)cc3)cc21)N1CCOCC1 [Example 20]

1. 0.2
2. 0.0501

Give measured IC50 for every item shown.
1. CC(C)NC(=O)Cn1ccc2ncc(-c3ccc(F)cc3)cc21 [Example 229]
2. Cc1cccc(-c2cnc3c(Cl)cn(CC(=O)N4CCCC4)c3c2)c1 [Example 12]
3. O=C(Cn1cc(Br)c2ncc(-c3ccccc3)cc21)NC1CC1 [Example 14]
4. CCN(CC)C(=O)Cn1ccc2ncc(-c3ccc(F)c(C)c3)cc21 [Example 297]
5. O=C(Cn1ccc2ncc(-c3cccc(F)c3F)cc21)N1CCC1 [Example 134]
6. O=C(Cn1ccc2ncc(-c3cc(F)c(F)c(F)c3)cc21)N1CCOCC1 [Example 127]

1: 0.501; 2: 0.0398; 3: 0.126; 4: 0.0398; 5: 0.0316; 6: 0.158

Give measured IC50 for every item shown.
1. Cc1ccc(-c2cnc3ccn(CC(=O)N4CCCC4)c3c2)s1 [Example 283]
2. Cc1cc(-c2cnc3ccn(CC(=O)N4CCC(CF)CC4)c3c2)ccc1F [Example 192, trifluoroacetate salt]
3. Cc1cccc(-c2cnc3ccn(CC(=O)C(C)C)c3c2)c1C [Example 225]
4. Cc1cc(-c2cnc3ccn(CC4CO4)c3c2)ccc1F (racemic) [Example 180, trifluoroacetate salt]
5. O=C(Cn1ccc2ncc(-c3ccccc3)cc21)NC1CC1 [Example 158, trifluoroacetate salt]
6. CC(C)C(=O)Cn1cc(F)c2ncc(-c3cccc(F)c3)cc21 [Example 327]
7. O=C(Cn1ccc2ncc(-c3ccccc3)cc21)C1CC1 [Example 220]
8. O=C(Cn1ccc2ncc(-c3ccc(F)cc3)cc21)N1CC(O)C1 [Example 211]

0.2
0.0794
0.0794
0.794
0.631
0.0631
0.0501
0.398

Give measured IC50 for every item shown.
1. Cc1cc2ncc(-c3ccc(F)cc3)cc2n1CC(=O)N1CCOCC1 [Example 31]
2. O=C(Cn1ccc2ncc(-c3ccc(F)cc3F)cc21)N1CCC1 [Example 133]

[3.16, 0.0794]

----------
- TEST TARGET: cloned human NR1/NR2B ion channels (Homo sapiens (Human), UniProt Q05586+Q13224)
- ASSAY REMARKS: HNR2BC: effects of test articles on cloned human NR1/NR2B ion channels expressed in mammalian cells (FLIPR calcium flux)
- Type: cell-based
- STATED CONDITIONS: cloned human NR1/NR2B, Table 5
Where a name gives a salt, the structure may show the parent alone.
Please respond with reported pIC50 for every item in the list.
Numbers only, as −log10 of the molar value.

Look over these answered cases.
# COMPOUND, pIC50
records = [
    ("O=C(Cn1ccc2ncc(-c3cc(F)c(F)c(F)c3)cc21)N1CC(F)(F)C1", 7.50),
    ("O=C(Cn1cc(F)c2ncc(-c3ccc(Cl)s3)cc21)C1CC1", 7.70),
    ("Cc1cc(-c2cnc3c(Cl)cn(CC(=O)N(C)C)c3c2)ccc1F", 6.00),
    ("Cc1cc(-c2cnc3c(F)cn(CC(=O)N4CC(F)C4)c3c2)ccc1F", 7.40),
    ("Cc1cccc(-c2cnc3ccn(CC(=O)N4CCC4)c3c2)c1C [Example 165, trifluoroacetate salt]", 7.20),
    ("Cc1cc(-c2cnc3c(F)cn(CC(=O)N4CCCC4)c3c2)ccc1F", 7.70),
    ("Cc1cc(-c2cnc3c(Cl)cn(CC(=O)NC4CC4)c3c2)ccc1F [Example 176, trifluoroacetate salt]", 7.50),
]

Could you now consider this next compound?
Supply pIC50 value. Item: `O=C(Cn1cc(F)c2ncc(-c3ccc(F)c(F)c3)cc21)N1CC(F)C1` 7.20

----------
- TEST TARGET: cloned human NR1/NR2B ion channels (Homo sapiens (Human), UniProt Q05586+Q13224)
- ASSAY REMARKS: HNR2BC: effects of test articles on cloned human NR1/NR2B ion channels expressed in mammalian cells (FLIPR calcium flux)
- Format: cell-based
- STATED CONDITIONS: cloned human NR1/NR2B ion channels, Table 5
Counter-ions that a name gives are not always drawn.
Consider the cut-off 50 nM. If the recorded IC50 is strictly smaller, the label is Condition met; if not, the label is Condition not met.

Here's what some known entries look like.
# COMPOUND, CLASS LABEL
measured = [
    ("Cc1cccc(-c2cnc3c(C)cn(CC(=O)N4CC(F)C4)c3c2)c1F [Example 563]", "Condition met"),
    ("Cc1cn(CC(=O)N(C)C)c2cc(-c3cc(F)cc(F)c3)cnc12 [Example 555]", "Condition not met"),
    ("Cc1ccc(-c2cnc3c(F)cn(CC(=O)N4CC(F)C4)c3c2)s1 [Example 402, trifluoroacetate salt]", "Condition not met"),
    ("CN(C)C(=O)Cn1cc(F)c2ncc(-c3cccc(C(F)(F)F)c3)cc21 [Example 499]", "Condition met"),
    ("O=C(Cn1cc(Cl)c2ncc(-c3cccc(F)c3)cc21)N1CC(F)C1 [Example 543]", "Condition met"),
    ("O=C(Cn1cc(Cl)c2ncc(-c3cccc(F)c3)cc21)N1CCC1 [Example 530]", "Condition met"),
    ("Cc1ccc(-c2cnc3c(C)cn(CC(=O)N(C)C)c3c2)s1 [Example 637]", "Condition not met"),
]

Alright, here's another compound for you.
Given the entry O=C(Cn1ccc2ncc(-c3cccc(Cl)c3F)cc21)N1CC(F)C1 [Example 466] , would its reported IC50 be below 50 nM? Condition met

----------
Please respond with reported pIC50 for every item in the list.
- TEST TARGET: cloned human NR1/NR2B ion channels (Homo sapiens (Human), UniProt Q05586+Q13224)
- ASSAY REMARKS: HNR2BC: effects of test articles on cloned human NR1/NR2B ion channels expressed in mammalian cells (FLIPR calcium flux)
- Type: cell-based
- STATED CONDITIONS: cloned human NR1/NR2B ion channels, Table 5
Answers are plain numbers, as −log10 of the molar value.

Look over these answered cases.
# STRUCTURE, pIC50
rows = [
    ("O=C(Cn1ccc2ncc(-c3cccc(C(F)F)c3)cc21)N1CCC1", 7.00),
    ("CCN(C)C(=O)Cn1cc(C)c2ncc(-c3cccc(C(F)(F)F)c3)cc21", 6.30),
    ("O=C(Cn1cc(Cl)c2ncc(-c3cccc(C(F)F)c3)cc21)N1CC(F)C1", 7.40),
    ("O=C(Cn1ccc2ncc(-c3cncs3)cc21)N1CCC1", 5.00),
    ("Cc1cccc(-c2cnc3c(F)cn(CC(=O)N4CCC4)c3c2)c1F", 6.70),
    ("CCN(C)C(=O)Cn1cc(C)c2ncc(-c3ccccc3F)cc21", 6.10),
    ("CN(C)C(=O)Cn1cc(Cl)c2ncc(-c3ccccc3F)cc21", 6.50),
    ("CN(C)C(=O)Cn1ccc2ncc(-c3ccc(C(F)F)s3)cc21", 6.70),
    ("CN(C)C(=O)Cn1ccc2ncc(-c3cc(F)cc(F)c3)cc21", 7.70),
    ("Cc1csc(-c2cnc3c(Cl)cn(CC(=O)N4CCC4)c3c2)c1", 5.20),
]

Give measured pIC50 for every item shown.
1. Cc1cccc(-c2cnc3c(C)cn(CC(=O)N4CCCC4)c3c2)c1F
2. CN(C)C(=O)Cn1ccc2ncc(-c3cc4ccccc4s3)cc21
3. Cc1cn(CC(=O)N2CC(F)(F)C2)c2cc(-c3ccccc3)cnc12
4. O=C(Cn1cc(Cl)c2ncc(-c3cccs3)cc21)N1CC(F)C1
5. Cc1c(F)ccc(-c2cnc3c(F)cn(CC(=O)N(C)C)c3c2)c1F
6. O=C(Cn1ccc2ncc(-c3ccc(F)c(F)c3F)cc21)N1CC(F)C1

[6.90, 6.70, 7.20, 7.20, 7.40, 7.50]
